src = ChEMBL document CHEMBL5113441

- test.summary: Selectivity index, ratio of IC50 for human L02 cells to IC50 for human A549 cells
- Type: toxicity
- condition.summary: L02 cells and A549 cells, read-out: Ratio IC50
outcome.measure: selectivity ratio

| molecule | observed.measurement |
| --- | --- |
| Cc1[nH]c2ccccc2c1C1=CCC(NCc2ccc(OCC(=O)NO)cc2F)CC1 (stereo unspecified) | 20 |

---

- test.summary: Cytotoxicity against human L02 cells measured after 72 hrs

| molecule | IC50 at 72 h / nM |
| --- | --- |
| Cc1[nH]c2ccccc2c1C1=CCC(NCc2ccc(OCC(=O)NO)cc2F)CC1 (configuration not stated) | 2300 |
| O=C(COc1ccc(CNCCc2c[nH]c3ccccc23)c(F)c1)NO | 1560 |
